The reported numbers originate from the CheMixHub drug solubility set.

Please respond with reported solubility (g/100 g solution) for every item in the list.
protocol.text: xn = mol fraction of the nth substance listed, in the solute-free solvent
reported.conditions: 318.15 K; x2 = 0.1
The reply should be a number, written without any unit.

Q. GET /values?readout=solubility (g/100 g solution)&item= S=c1[nH]ncs1 + CC(C)=O + O
A. 11.5

Q. Would you kindly share the measured solubility (g/100 g solution) for S=c1[nH]ncs1 + CCO + O ?
A. 6.49

Q. Bench note: what solubility (g/100 g solution) did S=c1[nH]ncs1 + CO + O show?
A. 4.36

Q. Which solubility (g/100 g solution) value belongs to S=c1[nH]ncs1 + CCCO + O ?
A. 10.7

----------
protocol.text: xn = mol fraction of the nth substance listed, in the solute-free solvent
reported.conditions: 303.15 K; x2 = 0.3103
measured.endpoint: solubility (g/100 g solution)
Reply: number alone, nothing else.

Q. Look at this compound and give its reported solubility (g/100 g solution). Nc1cccc(S(=O)(=O)c2cccc(N)c2)c1 + CC(C)O + O
A. 0.954

Q. Consider the compound shown here: Cc1[nH]c(=O)c(C#N)cc1-c1ccncc1 + CC(C)O + O What is its recorded solubility (g/100 g solution)?
A. 0.0133

Q. Look at this compound and give its reported solubility (g/100 g solution). CN1CCN(C2=Nc3cc(Cl)ccc3Nc3ccccc32)CC1 + CC(C)O + O
A. 0.917

Q. Need solubility (g/100 g solution) of c1ccc2[nH]c(-c3cscn3)nc2c1 + CCCO + O , thanks.
A. 0.367

Q. Bench note: what solubility (g/100 g solution) did Nc1nccnc1Cl + CC(C)O + O show?
A. 0.893

Q. Find the recorded solubility (g/100 g solution) belonging to c1ccc2[nH]c(-c3cscn3)nc2c1 + CC(C)O + O and report it.
A. 0.178

----------
protocol.text: xn = mol fraction of the nth substance listed, in the solute-free solvent
reported.conditions: 283.15 K; x2 = 0.04165
measured.endpoint: solubility (g/100 g solution)
Write no unit; give the number alone.

Q. May I ask what solubility (g/100 g solution) has been recorded for COc1cc2c(cc1OC)-c1cc3ccc(OC)c(OC)c3c[n+]1CC2.[Cl-] + CCO + O ?
A. 1.22

Q. Would you mind telling me what solubility (g/100 g solution) value was observed for Cc1[nH]c(=O)c(C#N)cc1-c1ccncc1 + CCO + O ?
A. 0.000813

Q. Which solubility (g/100 g solution) reading was recorded for the compound CC(C)OC(=O)C(C)NP(=O)(OCC1OC(n2ccc(=O)[nH]c2=O)C(C)(F)C1O)Oc1ccccc1 (centres undefined) + CCO + O ?
A. 0.484

Q. Name the recorded solubility (g/100 g solution) for Nc1cccc(S(=O)(=O)c2cccc(N)c2)c1 + CCO + O .
A. 0.0709

----------
Answer each item with its documented solubility (g/100 g solution).
protocol.text: xn = mol fraction of the nth substance listed, in the solute-free solvent
reported.conditions: 308.15 K; x2 = 0.08908
Response field accepts a number only; no unit should be typed.

Q. Quick one: solubility (g/100 g solution) of CC(C)OC(=O)C(C)NP(=O)(OCC1OC(n2ccc(=O)[nH]c2=O)C(C)(F)C1O)Oc1ccccc1 (centres undefined) + CCO + O ?
A. 7.2

Q. Entry COc1cc2c(cc1OC)-c1cc3ccc(OC)c(OC)c3c[n+]1CC2.[Cl-] + CCO + O has what solubility (g/100 g solution)?
A. 3.56

Q. Give its solubility (g/100 g solution) value. Item: Nc1cccc(S(=O)(=O)c2cccc(N)c2)c1 + CCO + O
A. 0.491

Q. What measured solubility (g/100 g solution) goes with Cc1[nH]c(=O)c(C#N)cc1-c1ccncc1 + CCO + O ?
A. 0.00221

----------
protocol.text: xn = mol fraction of the nth substance listed, in the solute-free solvent
reported.conditions: 293.15 K; x2 = 0.2068
Would you mind telling me the reported solubility (g/100 g solution) of each entry?

Q. Which solubility (g/100 g solution) is reported for this compound? Nc1cccc(S(=O)(=O)c2cccc(N)c2)c1 + CCO + O
A. 0.509

Q. Could you share which solubility (g/100 g solution) value was measured for COc1cc2c(cc1OC)-c1cc3ccc(OC)c(OC)c3c[n+]1CC2.[Cl-] + CCO + O ?
A. 2.17

Q. Query: solubility (g/100 g solution); subject: CC(C)OC(=O)C(C)NP(=O)(OCC1OC(n2ccc(=O)[nH]c2=O)C(C)(F)C1O)Oc1ccccc1 (centres undefined) + CCO + O
A. 12

Q. # query: solubility (g/100 g solution) of entry Cc1[nH]c(=O)c(C#N)cc1-c1ccncc1 + CCO + O
A. 0.00259

----------
protocol.text: xn = mol fraction of the nth substance listed, in the solute-free solvent
reported.conditions: 288.15 K; x2 = 0.08908
measured.endpoint: solubility (g/100 g solution)
Would you mind answering with just the numeric figure?

Q. // query solubility (g/100 g solution) value for entry CC(C)OC(=O)C(C)NP(=O)(OCC1OC(n2ccc(=O)[nH]c2=O)C(C)(F)C1O)Oc1ccccc1 (centres undefined) + CCO + O
A. 2.65

Q. Recorded solubility (g/100 g solution) of Cc1[nH]c(=O)c(C#N)cc1-c1ccncc1 + CCO + O , please.
A. 0.00123

Q. # lookup: solubility (g/100 g solution) of COc1cc2c(cc1OC)-c1cc3ccc(OC)c(OC)c3c[n+]1CC2.[Cl-] + CCO + O
A. 1.54

Q. Endpoint output: solubility (g/100 g solution) of Nc1cccc(S(=O)(=O)c2cccc(N)c2)c1 + CCO + O . Value?
A. 0.173

----------
protocol.text: xn = mol fraction of the nth substance listed, in the solute-free solvent
reported.conditions: 308.15 K; x2 = 0.1
Binary classification by solubility (g/100 g solution), with 4 as an inclusive lower bound for satisfied; all other cases are not satisfied.

Q. Say whether S=c1[nH]ncs1 + CO + O shows solubility (g/100 g solution) of 4 or more.
A. not satisfied

Q. Please indicate if the recorded solubility (g/100 g solution) for S=c1[nH]ncs1 + CCCO + O meets or exceeds 4.
A. satisfied

Q. Does solubility (g/100 g solution) meet or surpass 4 for Cc1ncc(C[n+]2csc(CCO)c2C)c(N)n1.O=[N+]([O-])[O-] + O + CO ?
A. not satisfied

Q. Would you say S=c1[nH]ncs1 + CC(C)=O + O shows solubility (g/100 g solution) at minimum 4?
A. satisfied

----------
protocol.text: xn = mol fraction of the nth substance listed, in the solute-free solvent
reported.conditions: 288.15 K; x2 = 0.04165
measured.endpoint: solubility (g/100 g solution)

Q. Please report the recorded solubility (g/100 g solution) for Nc1cccc(S(=O)(=O)c2cccc(N)c2)c1 + CCO + O .
A. 0.0964

Q. Report solubility (g/100 g solution) for Cc1[nH]c(=O)c(C#N)cc1-c1ccncc1 + CCO + O please.
A. 0.000966

Q. Endpoint output: solubility (g/100 g solution) of CC(C)OC(=O)C(C)NP(=O)(OCC1OC(n2ccc(=O)[nH]c2=O)C(C)(F)C1O)Oc1ccccc1 (centres undefined) + CCO + O . Value?
A. 0.653

Q. Need solubility (g/100 g solution), item COc1cc2c(cc1OC)-c1cc3ccc(OC)c(OC)c3c[n+]1CC2.[Cl-] + CCO + O
A. 1.49

----------
protocol.text: xn = mol fraction of the nth substance listed, in the solute-free solvent
reported.conditions: 283.15 K; x2 = 0.6
Answer each item with its documented solubility (g/100 g solution).

Q. Requested field: solubility (g/100 g solution). Item: S=c1[nH]ncs1 + CCCO + O
A. 8.9

Q. Quick one: solubility (g/100 g solution) for Cc1ncc(C[n+]2csc(CCO)c2C)c(N)n1.O=[N+]([O-])[O-] + O + CC(C)O ?
A. 0.439

Q. Bench note: what solubility (g/100 g solution) did Cc1ncc(C[n+]2csc(CCO)c2C)c(N)n1.O=[N+]([O-])[O-] + O + CC(C)=O show?
A. 0.746

Q. State the recorded solubility (g/100 g solution) for this entry: CC(N)C(=O)O (stereo not drawn) + O + CO
A. 1.21

Q. Item under review: CC(N)C(=O)O (stereo not drawn) + O + CCO . Reported solubility (g/100 g solution)?
A. 0.534

Q. Look up solubility (g/100 g solution): CC(N)C(=O)O (stereo not drawn) + O + CCCO
A. 0.635

Q. For the molecule CC(N)C(=O)O (stereo not drawn) + O + CC(C)O , what solubility (g/100 g solution) is on record?
A. 0.376

Q. Dear colleague, I am looking for the recorded solubility (g/100 g solution) of the following molecule: S=c1[nH]ncs1 + CO + O
A. 6.6

Q. // solubility (g/100 g solution) lookup, key: S=c1[nH]ncs1 + CC(C)=O + O
A. 23.6

Q. Which solubility (g/100 g solution) is listed for CC(N)C(=O)O (stereo not drawn) + O + CC(C)=O ?
A. 0.135

Q. So what's the measured solubility (g/100 g solution) for this one? S=c1[nH]ncs1 + CCO + O
A. 8.92

Q. Entry Cc1ncc(C[n+]2csc(CCO)c2C)c(N)n1.O=[N+]([O-])[O-] + O + CO : reported solubility (g/100 g solution) = ?
A. 1.24

Q. I'd like to know its solubility (g/100 g solution). The molecule in question is CCCCCOC(=O)Nc1nc(=O)n(C2OC(C)C(O)C2O)cc1F (stereo not drawn) + CCOC(C)=O + CCCCCC
A. 0.384
